- test.system: T1, Macaca fascicularis (mf) RET.mmh (Macaca fascicularis)
- T1 construct: also called monkey RET
- T1 chain: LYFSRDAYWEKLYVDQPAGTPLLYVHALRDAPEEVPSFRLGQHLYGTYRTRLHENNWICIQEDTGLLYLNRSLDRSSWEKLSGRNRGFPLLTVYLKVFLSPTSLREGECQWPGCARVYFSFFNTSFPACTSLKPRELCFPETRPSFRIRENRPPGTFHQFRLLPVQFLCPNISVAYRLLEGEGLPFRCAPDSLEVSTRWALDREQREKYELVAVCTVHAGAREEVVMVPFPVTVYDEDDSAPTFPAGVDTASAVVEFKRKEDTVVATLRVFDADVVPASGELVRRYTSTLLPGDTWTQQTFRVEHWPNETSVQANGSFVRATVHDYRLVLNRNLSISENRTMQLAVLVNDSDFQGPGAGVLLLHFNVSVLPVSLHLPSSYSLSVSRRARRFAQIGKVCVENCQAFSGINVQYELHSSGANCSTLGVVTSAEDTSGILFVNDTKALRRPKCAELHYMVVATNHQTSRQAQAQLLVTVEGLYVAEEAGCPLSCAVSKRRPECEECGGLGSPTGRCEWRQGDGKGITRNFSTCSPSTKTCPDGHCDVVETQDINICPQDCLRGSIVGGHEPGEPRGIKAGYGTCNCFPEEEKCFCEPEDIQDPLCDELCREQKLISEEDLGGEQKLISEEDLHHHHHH
- test.name: SPR Biacore T200, mAb capture, 25 C
assay.metric: kon (M⁻¹ s⁻¹)
Just the number please, in M⁻¹ s⁻¹, no unit attached.

H4H8062P (antibody, human IgG4, V domains shown, human IgG4 Fc (H4H prefix)) VH: EVQLVESGGGLVQPGGSLRLSCSVSGFIFKNYAMRWVRQAPGKGLEWVSGISGSGGITYYADSVRGRVTISRDNSKNTLDLQMTNLRAEDTAVYYCAKAEYSSSGAYFDYWGQGTLVTVSS VL: DIQMTQSPSSLSASVGDRVTITCRASQSIHNYLNWYLQRPGKAPKLLVYAASSLQSGVPSRFSGRGSGTDFTLTISSLQPEDFATYYCQQSYSAPYSFGQGTKLEIK
501000
H4H8056P (antibody, human IgG4, V domains shown, human IgG4 Fc (H4H prefix)) VH: QVQLVESGGGVVQPGRSLRLSCAASGFTFRNYGMHWVRQAPGKGLEWVAVKRYDGSDEYFVDSVKGRFTISRDNSKNTLFLQMNSLRVDDTAVYYCARETPITGTTLDYWGQGTLVTVSS VL: DIQMTQSPSSLSASVGDRVTITCRTSQSITNYLNWYQQKPGKAPKLLIYAASRSQSGVPSRFSGSGSGTDFTLTISSLQPEDFATYYCQQSYSTPLTFGGGTKVEIK
216000

For the next question, use this binder.
Look at this binder and give its reported kon. H4H8087P (antibody, human IgG4, V domains shown, human IgG4 Fc (H4H prefix)) VH: QVQLVESGGGVVQPGRSLRLSCAASGFSFSSYGMHWVRQAPGKGLEWVAVMWYDGSNEYYADSVKGRFIISRDNSKSTLYLEMNSLRAEDTALYYCAREDWDEGYYYGMDVWGQGTTVTVSS VL: DIQMTQSPSSLFASVGDRVTITCRASQDIRYDLGWYQQKPGKAPKRLIYASSILESGVPSRFSGSGSGTEYTLTISTLQSEDFAIYYCLQHNSFPWTFGQGTKVEIK
641000
